The values you see were collected from ChEMBL document CHEMBL2203126.

Biological target: Prostaglandin D2 receptor 2 (Homo sapiens, UniProt Q9Y5Y4)
Sequence (Q9Y5Y4 whole entry): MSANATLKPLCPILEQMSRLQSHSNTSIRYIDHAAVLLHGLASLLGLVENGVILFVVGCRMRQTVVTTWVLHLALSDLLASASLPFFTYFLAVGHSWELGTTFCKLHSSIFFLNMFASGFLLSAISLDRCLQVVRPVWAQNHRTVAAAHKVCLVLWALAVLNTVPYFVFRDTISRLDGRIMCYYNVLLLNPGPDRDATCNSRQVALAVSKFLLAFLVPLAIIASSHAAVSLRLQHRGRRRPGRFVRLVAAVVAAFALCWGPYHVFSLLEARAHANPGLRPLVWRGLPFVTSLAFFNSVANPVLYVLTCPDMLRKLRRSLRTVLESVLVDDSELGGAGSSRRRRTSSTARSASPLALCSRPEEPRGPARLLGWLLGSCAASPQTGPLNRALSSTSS
Assay: biochemical
Description: Displacement of [3H]PGD2 from recombinant human CRTH2 receptor expressed in CHO-K1 cells after 30 min by FRET method
measurement label: IC50 (nM)

Cc1c(Cc2ccc(=O)n(Cc3ccccc3)n2)c2cc(Cl)ccc2n1CC(=O)O; 15
Cc1c(-c2ccc(=O)n(Cc3ccccc3)n2)c2cc(S(C)(=O)=O)ccc2n1CC(=O)O; 135
Cc1c(-c2nn(CCOc3ccc(Cl)cc3)c(=O)c3ccccc23)c2cc(Cl)ccc2n1CC(=O)O; 2
Cc1c(Cc2ccc(=O)n(Cc3cc(F)c(F)cc3F)n2)c2cc(F)ccc2n1CC(=O)O; 0.8
Cc1ccc2c(c1)c(-c1ccc(=O)n(Cc3ccccc3)n1)c(C)n2CC(=O)O; 34

[P] Cc1c(-c2nn(Cc3ccccc3)c(=O)c3ccccc23)c2ccccc2n1CC(=O)O
[Q] Cc1c(CC2=NN(Cc3ccc(F)cc3F)C(=O)CC2)c2cc(F)ccc2n1CC(=O)O
Input: From the items above, decide which of P and Q has the lower IC50 reading. Which one? Tell me its label.
Output: Q
(Q: 4 nM, P: 16 nM)

----------
assay: Dissociation constant, pKa of the compound; type: physicochemical
measurement label: pKa

Cc1c(-c2ccc(=O)n(Cc3ccccc3)n2)c2cc(Br)ccc2n1CC(=O)O; 4.03
Cc1c(-c2ccc(=O)n(Cc3ccccc3)n2)c2cc(Cl)ccc2n1CC(=O)O; 4.03
Cc1c(-c2ccc(=O)n(Cc3ccccc3)n2)c2cc(F)ccc2n1CC(=O)O; 4.02
Cc1c(-c2ccc(=O)n(Cc3ccccc3)n2)c2cccc(Br)c2n1CC(=O)O; 3.98
COc1ccc2c(c1)c(-c1ccc(=O)n(Cc3ccccc3)n1)c(C)n2CC(=O)O; 4.07
Cc1c(-c2ccc(=O)n(Cc3ccccc3)n2)c2cc(S(C)(=O)=O)ccc2n1CC(=O)O; 4

----------
Target: Prostaglandin D2 receptor 2 (Homo sapiens, UniProt Q9Y5Y4)
Sequence (Q9Y5Y4 whole entry): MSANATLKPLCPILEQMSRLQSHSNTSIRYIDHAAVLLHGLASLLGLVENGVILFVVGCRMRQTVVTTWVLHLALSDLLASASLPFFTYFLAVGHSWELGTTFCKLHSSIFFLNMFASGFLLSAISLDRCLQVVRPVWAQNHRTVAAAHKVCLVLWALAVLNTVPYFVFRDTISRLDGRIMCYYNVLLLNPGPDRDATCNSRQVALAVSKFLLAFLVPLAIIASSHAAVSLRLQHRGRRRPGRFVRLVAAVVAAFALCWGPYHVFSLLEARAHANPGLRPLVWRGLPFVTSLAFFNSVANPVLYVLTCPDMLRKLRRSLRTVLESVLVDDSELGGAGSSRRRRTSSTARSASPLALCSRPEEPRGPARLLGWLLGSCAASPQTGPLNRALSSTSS
Test: biochemical
pIC50: −log10 of the molar value.
measurement label: pIC50

Example entries begin here.
Cc1c(-c2ccc(=O)n(Cc3ccc(F)cc3F)n2)c2cc(F)ccc2n1CC(=O)O; 8.00
Cc1c(-c2ccc(=O)n(Cc3ccccc3)n2)c2cc(Cl)cc(F)c2n1CC(=O)O; 7.05
Cc1c(-c2ccc(=O)n(Cc3ccccc3)n2)c2cc(F)cc(Cl)c2n1CC(=O)O; 6.61

[I] Cc1c(-c2ccc(=O)n(Cc3ccccc3)n2)c2cc(F)cc(F)c2n1CC(=O)O
[II] Cc1c(-c2ccc(=O)n(Cc3ccccc3)n2)c2ccccc2n1CC(=O)O
Input: Select the item whose pIC50 value is smaller, choosing between I and II . State the label of the item chosen.
Output: II
(II: 6.87, I: 7.12)

[I] Cc1c(-c2ccc(=O)n(Cc3ccccc3)n2)c2cc(Br)ccc2n1CC(=O)O
[II] Cc1c(-c2ccc(=O)n(Cc3ccccc3)n2)c2cc(S(C)(=O)=O)cc(F)c2n1CC(=O)O
Input: Return label of the item with the larger pIC50. Candidates: I , II . I would appreciate it if you answered with the label of your choice.
Output: I
(I: 7.80, II: 6.03)
